Items are presented alongside their recorded IC50.
- Test system: IL-17A-induced G-CSF production in human normal keratinocyte (NHK)
- PROTOCOL DESCRIPTION: NHK assay: IL-17A-induced G-CSF production in normal human keratinocytes
- Assay type: cell-based
- CONDITION SET: Homo sapiens, Keratinocyte, 24 h, IL-17A 5 ng/mL, average if tested more than once

C[C@@H](NC(=O)CC1CC(F)(F)C1)c1ccc2[nH]c([C@@H](NC(=O)c3ccnn3C)C3CCC(F)(F)CC3)nc2c1 ... < 50 nM
Cc1nonc1C(=O)N[C@H](c1nc2ccc([C@H](NC(=O)CC3CC(F)(F)C3)C3CC3)cc2[nH]1)C1CCOC(C)(C)C1 (single isomer, unassigned) ... > 100 nM
C[C@@H](NC(=O)CCC(F)(F)F)c1ccc2[nH]c([C@@H](NC(=O)c3cnn(CC(F)F)n3)C3CCC(F)(F)CC3)nc2c1 ... > 100 nM
C[C@@H](NC(=O)CCC(F)(F)F)c1ccc2[nH]c([C@@H](NC(=O)C3CC3)C3CCC(F)(F)CC3)nc2c1 ... > 100 nM
C[C@@H](NC(=O)CCC(F)(F)F)c1ccc2[nH]c([C@@H](NC(=O)c3cnc4n3CCC4)C3CCC(F)(F)CC3)nc2c1 ... > 100 nM
C[C@@H](NC(=O)CCC(F)(F)F)c1ccc2[nH]c([C@@H](NC(=O)[C@@H]3C[C@H]3C(F)(F)F)C3CCC(F)(F)CC3)nc2c1 (relative stereo) ... > 100 nM

Attention now turns to another entry.
Hello, please tell me recorded IC50 for this one: CCn1nccc1C(=O)N[C@H](c1nc2cc([C@@H](C)NC(=O)CC(C(F)(F)F)C(F)(F)F)ccc2[nH]1)C1CCC(F)(F)CC1
< 50 nM
